Test system: C33A
Assay: Primary qHTS to identify gynecologic anti-cancer compounds using libraries of approved drugs and bioactive compounds (AID 1345084); further: nearly all actives have a fitted effect of over 55% in size
Details: Gynecologic cancer cell panel viability, ATPlite luminescence, 48 h; series mostly up to 57.5 µM
Inconclusive results are not listed. The source made the active and inactive calls. The call rests on the fitted dose curve; in most records, active means well fitted cell-killing curve with a large enough effect; inconclusive means small, poorly fitted or top-dose-only effect, or effect the other way; inactive means flat fitted curve, though single readings scatter.
endpoint_label: outcome

Solved entries (count: 8):
# molecule, outcome
data = [
    ("O=[N+]([O-])c1ccc(/C=N\\O)o1", "inactive"),
    ("c1ccc(CC2=NCCN2)cc1", "inactive"),
    ("COc1cc(O)c(C(=O)c2ccccc2)cc1S(=O)(=O)O", "inactive"),
    ("CC1(COc2ccc(CC3SC(=O)NC3=O)cc2)CCCCC1 (configuration not stated)", "inactive"),
    ("CC1=C(C(=O)O)N2C(=O)[C@@H](NC(=O)[C@H](N)c3ccccc3)[C@H]2SC1", "inactive"),
    ("O=S(=O)(O)c1ccc(O)cc1", "inactive"),
    ("CC(=O)Nc1ccc(CC(=O)O)cc1", "inactive"),
    ("COc1ccc(CN(CCN(C)C)c2ncccn2)cc1", "inactive"),
]

The measured outcome associated with CC(C)[N+](C)(C)CC(O)COc1cccc2ccccc12 (configuration not stated) reads inactive

The measured outcome associated with C#C[C@]1(OC(C)=O)CC[C@H]2[C@@H]3CCC4=C/C(=N/O)CC[C@@H]4[C@H]3CC[C@@]21CC reads inactive

The measured outcome associated with CC(=O)N[C@@H](CCC(=O)O)C(=O)O reads inactive

The measured outcome associated with N#C/C(=C1\SCC(c2ccccc2Cl)S1)n1ccnc1 (configuration not stated) reads inactive

====

Tested on: C2A
Assay: qHTS profiling for inhibitors of Plasmodium falciparum proliferation (AID 504749); further: nearly all actives have a fitted effect of over 60% in size
Conditions: P. falciparum in erythrocytes, SYBR Green DNA, 72 h; series mostly up to 28.7 µM
Records with an inconclusive call do not appear. The source made the active and inactive calls. The call rests on the fitted dose curve; in most records, active means well fitted inhibition curve with a large enough effect; inconclusive means small, poorly fitted or top-dose-only effect; inactive means flat fitted curve, though single readings scatter.
Hi! Could you answer with just one of these? TRUE = active, FALSE = inactive

# smiles_data, class_label
data = [
    ("CCOC(=O)Nc1ccc2c(c1)N(C(=O)CCN1CCOCC1)c1ccccc1S2", "FALSE"),
    ("O=[N+]([O-])c1cccc(S(=O)(=O)NCCNS(=O)(=O)c2cccc([N+](=O)[O-])c2)c1", "FALSE"),
    ("CCOC(=O)c1c(N)sc2c1CCN(Cc1ccccc1)C2", "TRUE"),
    ("FC(F)(F)C(F)(F)C(F)(F)C(F)(F)C(F)(F)C(F)(F)C(F)(F)C(F)(F)Br", "FALSE"),
    ("CCOc1ccccc1OCCN[C@H](C)Cc1ccc(OC)c(S(N)(=O)=O)c1", "FALSE"),
    ("COc1ccc(-c2cc(C(F)F)nn2-c2ccc(S(N)(=O)=O)cc2)cc1F", "FALSE"),
]

Request: Please state the recorded outcome for this compound: N=C(N)N1CCc2ccccc2C1
Result: FALSE

Request: Please state the recorded outcome for this compound: Cc1cc(NS(=O)(=O)c2ccc(N)cc2)nc(C)n1
Result: FALSE

Request: Please state the recorded outcome for this compound: CC(=O)NCCCCCC(=O)O
Result: FALSE

Request: Please state the recorded outcome for this compound: COc1cc(C(=S)N2CCOCC2)ccc1O
Result: FALSE

Request: Please state the recorded outcome for this compound: NC(N)=NN=C(/C=C/c1ccc([N+](=O)[O-])o1)/C=C/c1ccc([N+](=O)[O-])o1
Result: TRUE

# credit: PubChem BioAssay (NCATS)
